Test: Protein binding in rat plasma
Assay type: ADME, cell-free
Conditions: read-out: PPB
quantityMeasured: fraction unbound

[Q] Bench note: what fraction unbound did N#Cc1c(O)nc(SCc2cccc(F)c2F)nc1C1CC1 show?
[A] < 0.01

====

Molecular target: C-X-C chemokine receptor type 2 (Homo sapiens, UniProt P25025)
Sequence (P25025 whole entry): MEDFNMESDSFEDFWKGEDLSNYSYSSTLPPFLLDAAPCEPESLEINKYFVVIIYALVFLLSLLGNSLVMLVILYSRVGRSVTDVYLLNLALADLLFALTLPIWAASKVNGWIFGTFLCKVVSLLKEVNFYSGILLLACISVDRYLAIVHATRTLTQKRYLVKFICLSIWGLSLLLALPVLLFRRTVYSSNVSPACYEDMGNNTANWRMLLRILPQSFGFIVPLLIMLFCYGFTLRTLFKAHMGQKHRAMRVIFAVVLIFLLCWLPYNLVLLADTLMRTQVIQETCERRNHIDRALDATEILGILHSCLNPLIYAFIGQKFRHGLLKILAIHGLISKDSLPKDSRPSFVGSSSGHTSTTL
Assay: Antagonist activity against human recombinant CXCR2 receptor expressed in CHO cell membranes by SPA based [35S]GTPgammaS binding assay
Format: functional
For each of the molecules below, state its IC50.
Report the figure in µM without appending any unit label.

[Q] Bench note: what IC50 did N#Cc1c(O)nc(SCc2cccc(F)c2F)nc1[C@H]1C[C@@H]1C(=O)O show?
[A] 0.01

[Q] Bench note: what IC50 did N#Cc1c(O)nc(SCc2cccc(F)c2F)nc1-c1ccc(Cl)cc1 show?
[A] 7.4

====

Experiment: Oral bioavailability in rat
Type: ADME, organism-based
Details: in vivo
quantityMeasured: bioavailability

[Q] Bench note: what bioavailability did N#Cc1c(O)nc(SCc2cccc(F)c2F)nc1C1CC1 show?
[A] > 100%

====

Assay: Dissociation constant, pKa of the compound
Assay type: physicochemical
quantityMeasured: pKa
Please give the numeric answer without any surrounding text.

[Q] Bench note: what pKa did N#Cc1c(O)nc(SCc2cccc(F)c2F)nc1C1CC1 show?
[A] 8.9

====

Target: C-X-C chemokine receptor type 2 (Homo sapiens, UniProt P25025)
Test: Antagonist activity against human recombinant CXCR2 receptor expressed in CHO cell membranes by SPA based [35S]GTPgammaS binding assay
Type: functional
quantityMeasured: pIC50
Please note pIC50 is a logarithmic value: minus log10 of concentration in mol/L. Answer with that number alone.

[Q] Bench note: what pIC50 did CCOC(=O)[C@H]1C[C@@H]1c1nc(SCc2cccc(F)c2F)nc(O)c1C#N (racemic) show?
[A] 5.82

[Q] Bench note: what pIC50 did CC(C)c1nc(SCc2cccc(F)c2F)nc(O)c1C#N show?
[A] 6.05

[Q] Bench note: what pIC50 did Cc1cccc(-c2nc(SCc3cccc(F)c3F)nc(O)c2C#N)c1 show?
[A] 5.33

[Q] Bench note: what pIC50 did Cc1ccc(-c2nc(SCc3cccc(F)c3F)nc(O)c2C#N)cc1 show?
[A] 5.85

[Q] Bench note: what pIC50 did CCOC(=O)[C@H]1C[C@@H]1c1nc(SCc2cccc(F)c2F)nc(O)c1C#N (stereo in doubt; form 2) show?
[A] 5.89

[Q] Bench note: what pIC50 did CC(C)(C)c1nc(SCc2cccc(F)c2F)nc(O)c1C#N show?
[A] 5.43

[Q] Bench note: what pIC50 did N#Cc1c(O)nc(SCc2cccc(F)c2F)nc1-c1ccccc1 show?
[A] 5.43

[Q] Bench note: what pIC50 did N#Cc1c(O)nc(CSc2cccc(F)c2F)nc1C1CC1 show?
[A] 5.00

[Q] Bench note: what pIC50 did N#Cc1c(O)nc(SCc2cccc(F)c2F)nc1-c1ccc(O)cc1 show?
[A] 6.11

[Q] Bench note: what pIC50 did N#Cc1c(O)nc(SCc2cccc(F)c2F)nc1[C@H]1C[C@@H]1CO show?
[A] 8.22

[Q] Bench note: what pIC50 did CC(C)Oc1ccc(-c2nc(SCc3cccc(F)c3F)nc(O)c2C#N)cc1 show?
[A] 5.80

[Q] Bench note: what pIC50 did CC(Sc1nc(O)c(C#N)c(C2CC2)n1)c1ccccc1 (stereo not drawn) show?
[A] 5.32

[Q] Bench note: what pIC50 did N#Cc1c(O)nc(SCc2ccccc2)nc1C1CC1 show?
[A] 6.29

[Q] Bench note: what pIC50 did Oc1nc(SCc2cccc(F)c2F)nc(C2CC2)c1I show?
[A] 5.49

[Q] Bench note: what pIC50 did N#Cc1c(O)nc(SCc2cccc(F)c2F)nc1C1CCCC1 show?
[A] 5.31

[Q] Bench note: what pIC50 did Oc1nc(SCc2cccc(F)c2F)nc(C2CC2)c1Br show?
[A] 5.85

[Q] Bench note: what pIC50 did N#Cc1c(O)nc(SCc2cccc(F)c2F)nc1[C@H]1C[C@@H]1C(N)=O show?
[A] 8.15

[Q] Bench note: what pIC50 did N#Cc1c(O)nc(SCc2cccc(F)c2F)nc1C1CC1 show?
[A] 6.85

[Q] Bench note: what pIC50 did COc1ccc(-c2nc(SCc3cccc(F)c3F)nc(O)c2C#N)cc1C show?
[A] 5.34

[Q] Bench note: what pIC50 did Oc1cc(C2CC2)nc(SCc2cccc(F)c2F)n1 show?
[A] 6.49
